# Tested on: SR leukemia
# ASSAY: NCI-60 one-dose screen, 48 h (100 = growth as untreated, 0 = no growth, -100 = all killed)
# CONDITION DETAILS: 10 µM unless noted
This is part of a sample that, as a whole, favours compounds with a hit. Of some 83,000 tested, about 20% had one in any assay.
RECORDED ENDPOINT: growth (%)
Kindly answer with a numeric value in %, unit omitted.

Please review the entries below; each comes with its answer.
Tell me growth reported for `O=C1CNCCN1`
102

Tell me growth reported for `O=C(N/N=C/c1ccccc1SSc1ccccc1/C=N/NC(=O)c1ccccc1)c1ccccc1`
18.9

Continuing:
Tell me growth reported for `C#CCn1c(C)cc(C)c(C#N)c1=O`
101

Tell me growth reported for `COc1ccc(-c2cc(-c3cccs3)n(N=O)c(=O)c2C#N)cc1`
114

Tell me growth reported for `C=C(C)[C@@H]1CC[C@]2(C)[C@H](CC=C3[C@@H]4CC(C)(C)CC[C@]4(C=O)CC[C@]32C)[C@@]1(C)CCCN`
-31.5

Tell me growth reported for `C[C@@H]1CCCCCCCCC[C@H](O)C(=O)C[C@@H](SC[C@@H](O)C(=O)O)C(=O)O1`
74.4

----------
# Test system: SNB-19 CNS
# ASSAY: NCI-60 one-dose screen, 48 h
# CONDITION DETAILS: 10 µM unless noted
This is part of a sample that, as a whole, favours compounds with a hit. Of some 83,000 tested, about 20% had one in any assay. The source made the active and inactive calls. How the source made its calls: active means growth percent below 10; inactive means the rest.
One label from this list, please: Y (active), N (inactive)

Solved cases (4 shown):
For `C#CCN=C[C@]12CC[C@@H](C(=C)C)[C@@H]1[C@H]1CC[C@@H]3[C@@]4(C)CCC(=O)C(C)(C)[C@@H]4CC[C@@]3(C)[C@]1(C)CC2` , which call appears in the assay record?
N

For `Cn1cc(-c2csc(-c3cn(CCNC(=O)OC(C)(C)C)c4ccccc34)n2)c2cccnc21` , which call appears in the assay record?
N

For `COC(=O)[C@]12CC[C@@H](C)[C@H](C)[C@@H]1C1=CC[C@@H]3[C@@]4(C)C[C@@H](O)[C@H](O)[C@@](C)(CO)C4=CC[C@@]3(C)[C@]1(C)CC2` , which call appears in the assay record?
Y

For `CCN1CCN(C(=O)[C@]23CCC(C)(C)C[C@@H]2C2=CC[C@@H]4[C@@]5(C)C/C(=C/c6cccnc6)C(=O)C(C)(C)[C@@H]5CC[C@@]4(C)[C@]2(C)CC3)CC1` , which call appears in the assay record?
N

Continuing:
For COc1cc(/C=C2\C(=O)N(CC(O)COc3cc(O)c4c(=O)cc(-c5ccccc5)oc4c3)c3ccccc32)cc(OC)c1O (stereo unspecified) , which call appears in the assay record?
N

For `COc1ccc(NC(=S)N/N=C/c2ccccc2SSCCC(=O)OC[C@H]2O[C@H](O)[C@H](O)[C@@H](O)[C@@H]2O)cc1` , which call appears in the assay record?
N

----------
# System: U251 CNS
# ASSAY: NCI-60 one-dose screen, 48 h (100 = growth as untreated, 0 = no growth, -100 = all killed)
# CONDITION DETAILS: 10 µM unless noted
This is part of a sample that, as a whole, favours compounds with a hit. Of some 83,000 tested, about 20% had one in any assay. Calls of active or inactive are those of the source. How the source made its calls: active means growth percent below 10; inactive means the rest.
RECORDED ENDPOINT: growth

Please review the entries below; each comes with its answer.
Tell me growth reported for `Cc1cc(N2CCN(C)CC2)nc(N(CCNc2ccnc3cc(Cl)ccc23)Cc2ccco2)n1`
39.3% (inactive)

Tell me growth reported for `CC1(n2nnnc2N2CCCN(c3ncccc3N)CC2)CCC1`
101% (inactive)

Tell me growth reported for `COc1cccc(-c2nn(-c3ccccc3)cc2-c2ccnc(NCCNS(=O)(=O)c3ccc(C(F)(F)F)cc3)c2)c1`
15.4% (inactive)

Tell me growth reported for `Clc1ccc(Cn2cc(-c3nc4ccc(Br)nc4n3Cc3ccc(Cl)cc3)c3cccnc32)cc1`
94.8% (inactive)

Tell me growth reported for `O=C1c2cc3c(cc2-c2c1c1ccc(Cl)cc1c(=O)n2C[C@H](O)[C@@H](O)[C@H](O)CO)OCO3`
-26.9% (active)

Continuing:
Tell me growth reported for c1ccc(CN2C(c3ccccc3)=Nc3ccccc3C2c2c[nH]c3ccccc23)cc1 (configuration not stated)
35.7% (inactive)

Tell me growth reported for `C=C(C)[C@@H]1CC[C@]2(C)CC[C@]3(C)[C@H](CC[C@@H]4[C@@]5(C)CCCNC(C)(C)[C@@H]5CC[C@]43C)[C@@H]12`
11.9% (inactive)

----------
# Test system: SF-539 CNS
# ASSAY: NCI-60 one-dose screen, 48 h
# CONDITION DETAILS: 10 µM unless noted
# Description: Cells are grown in 96 well plates and exposed to the test compound for 48 hours. Compounds are tested at a single concentration, which is 10^-5 M for most compounds. The reported endpoint is percent growth (GI% or GIPRCNT), where numbers from 0 - 100% represent growth inhibition, and numbers from -100% - 0 represent cell death. For example, a value of 40 represents 60% growth inhibition. A value of 0 means no net growth occurred over the course of the experiment. […]
About 83,000 compounds went through this panel and 20% of them were active in at least one assay; those are over-represented in the sample as a whole. Active and inactive are the calls of the source. The calls were made as follows: active = growth percent below 10; inactive = the rest.
One label from this list, please: y = active, n = inactive

For `C=C(C)[C@@H]1CC[C@]2(C)[C@H](CC=C3[C@@H]4CC(C)(C)CC[C@]4(C(=O)OC)CC[C@]32C)[C@@]1(C)CC/C(N)=N/O` , which call appears in the assay record?
n

Continuing:
For `O=[N+]([O-])c1ccc(N/N=C(\C(=N/Nc2ccc([N+](=O)[O-])cc2[N+](=O)[O-])c2ccccc2)c2ccccc2)c([N+](=O)[O-])c1` , which call appears in the assay record?
n

For `C[C@H]1[C@H]2C3=CC[C@@H]4[C@@]5(C)C/C(=C/c6ccco6)C(=O)C(C)(C)[C@@H]5CC[C@@]4(C)[C@]3(C)CC[C@@]2(C(=O)N2CCOCC2)CC[C@@H]1C` , which call appears in the assay record?
n

For COc1ccc(C2C(C#N)=C(N)Oc3c2sc2c(F)cccc32)cc1 (configuration not stated) , which call appears in the assay record?
y

For CC1(C)NC2=C(C(Nc3cccnc3)N1)C(c1ccc([N+](=O)[O-])cc1)C(C(=O)c1ccc(N=[N+]=[N-])cc1)O2 (configuration not stated) , which call appears in the assay record?
n

For `C[N+](C)(CCCCCC[N+](C)(C)C1c2ccccc2-c2ccccc21)C1c2ccccc2-c2ccccc21` , which call appears in the assay record?
n

For `O=C(NO)c1ccc(Cn2c(=O)n(-c3ccccc3)c(=O)c3ccccc32)cc1` , which call appears in the assay record?
y

----------
# Test system: SK-OV-3 ovarian
# ASSAY: NCI-60 one-dose screen, 48 h
# CONDITION DETAILS: 10 µM unless noted
About 83,000 compounds went through this panel and 20% of them were active in at least one assay; those are over-represented in the sample as a whole. The source made the active and inactive calls. Rule for the calls: active = growth percent below 10; inactive = the rest.
One label from this list, please: y = active, n = inactive

Solved cases (5 shown):
For `COc1ccc(/C=C/C(=O)c2ccc([N+](=O)[O-])cc2)cc1` , which call appears in the assay record?
n

For `COC(=O)[C@]12CC[C@@H](C)[C@H](C)[C@@H]1C1=CC[C@@H]3[C@@](C)(CC#N)C4=C(C[C@@]3(C)[C@]1(C)CC2)OC[C@]4(C)C=O` , which call appears in the assay record?
y

For `CC(C)=CCC/C(C)=C/CC/C(C)=C/CSC[C@H](NC(=O)CCCCCN1CCN(C)CC1)C(=O)NC1CCCCCC1` , which call appears in the assay record?
n

For `CC[C@]12C=CCN3CC[C@@]4(c5cc([C@H]6CCC(=O)N6)c(OC)cc5N(C)[C@H]4[C@@](O)(C(=O)OC)[C@@H]1OC(C)=O)[C@@H]32` , which call appears in the assay record?
n

For `COC(=O)[C@]12CC[C@@H](C)[C@H](C)[C@@H]1C1=CC[C@@H]3[C@@]4(C)C[C@@H](OC(C)=O)[C@H](O)[C@@](C)(CO)[C@@H]4[C@H](O)C[C@@]3(C)[C@]1(C)CC2` , which call appears in the assay record?
y

Continuing:
For `COc1ccc(-c2nc3ncccn3c2-c2nc3ccc(Br)cc3[nH]2)cc1` , which call appears in the assay record?
n

For `COc1cc2[nH]c(C(=O)c3cc(OC)c(OC)c(OC)c3)c(N)c2cc1C#CC1CC1` , which call appears in the assay record?
n

For `C=C(C)[C@@H]1CC[C@]2(C(=O)OC)CC[C@]3(C)[C@H](CC[C@@H]4[C@@](C)(CC/C(N)=N/O)[C@H](C(=C)C)CC[C@]43C)[C@@H]12` , which call appears in the assay record?
n

For CC(=O)OC(C)COc1ccc(-c2ccccc2)cc1 (stereo not drawn) , which call appears in the assay record?
n

For `Fc1ccc(Nc2nnc(-c3ccc(Cl)cc3)o2)cc1` , which call appears in the assay record?
n

For `Clc1ccc2[nH]cc(-c3nc(-c4c[nH]c5ncccc45)cs3)c2c1` , which call appears in the assay record?
n
